# assayedSystem: biotinylated human Gal-3 (hGal-3) (Homo sapiens, UniProt P17931)
# Sequence (P17931 whole entry): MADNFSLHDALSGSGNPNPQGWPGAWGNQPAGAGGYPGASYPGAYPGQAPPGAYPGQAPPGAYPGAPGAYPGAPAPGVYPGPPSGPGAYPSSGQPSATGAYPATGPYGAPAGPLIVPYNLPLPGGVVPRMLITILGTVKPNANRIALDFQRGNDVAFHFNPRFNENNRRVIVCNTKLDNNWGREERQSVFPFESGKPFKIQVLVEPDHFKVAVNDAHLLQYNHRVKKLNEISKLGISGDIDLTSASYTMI
# protocolSummary: Competitive binding assay: biotinylated hGal-3 binding to microplate-adsorbed asialofetuin (ASF), spectrophotometric
# cond: Gal-3 inhibition, Table 4; read-out: IC50
assayReadout: IC50 (µM)

Returns the measured IC50 for the input compound. Input: O=C(C(S[C@@H]1O[C@H](CO)[C@H](O)[C@H](n2cc(-c3cc(F)c(F)c(F)c3)nn2)[C@H]1O)C1(O)CCOCC1)N1CCCC1 (stereo partly drawn)
0.13

Returns the measured IC50 for the input compound. Input: CN(CCC1CCOCC1)C(=O)[C@H](S[C@@H]1O[C@H](CO)[C@H](O)[C@H](n2cc(-c3cc(F)c(F)c(F)c3)nn2)[C@H]1O)C1(O)CCOCC1 [Example 2.41.216R.]
1.53

Returns the measured IC50 for the input compound. Input: CCN(CC)C(=O)C(S[C@@H]1O[C@H](CO)[C@H](O)[C@H](n2cc(-c3cc(F)c(F)c(F)c3)nn2)[C@H]1O)C1(O)CCOCC1 (stereo partly drawn)
0.05

A. CN(C)C(=O)[C@H](S[C@@H]1O[C@H](CO)[C@H](O)[C@H](n2cc(-c3cc(F)c(F)c(F)c3)nn2)[C@H]1O)C1(O)CCOCC1 [Example 2.41.201R.]
B. CN(C)C(=O)C(S[C@@H]1O[C@H](CO)[C@H](O)[C@H](n2cc(-c3cc(F)c(F)c(F)c3)nn2)[C@H]1O)C1(O)CCOCC1 (stereo partly drawn)
Please indicate which has the smaller reported IC50: A , or B . Pick one; state its label.
B
(B: 0.18 µM, A: 4.1 µM)

I. CN(Cc1cccs1)C(=O)C(S[C@@H]1O[C@H](CO)[C@H](O)[C@H](n2cc(-c3cc(F)c(F)c(F)c3)nn2)[C@H]1O)C1(O)CCOCC1 (stereo partly drawn)
II. CN(CCC1CC1)C(=O)C(S[C@@H]1O[C@H](CO)[C@H](O)[C@H](n2cc(-c3cc(F)c(F)c(F)c3)nn2)[C@H]1O)C1(O)CCOCC1 (stereo partly drawn)
Please indicate which has the smaller reported IC50: I , or II . Pick one; state its label.
II
(II: 0.06 µM, I: 0.44 µM)

* * *

# assayedSystem: biotinylated human Gal-3 (hGal-3) (Homo sapiens)
# protocolSummary: Competitive binding assay: biotinylated hGal-3 binding to microplate-adsorbed asialofetuin (ASF), spectrophotometric
# cond: Gal-3 inhibition, Table 5; read-out: IC50
pIC50: −log10 of the molar value.
assayReadout: pIC50

Returns the measured pIC50 for the input molecule. Input: CN(CC(C)(C)C)C(=O)[C@@H](S[C@@H]1O[C@H](CO)[C@H](O)[C@H](n2cc(-c3cc(F)c(F)c(F)c3)nn2)[C@H]1O)C1(O)CCC1 [Example 2.34.228S.]
6.92

1. CN(CC(F)(F)F)C(=O)C(S[C@@H]1O[C@H](CO)[C@H](O)[C@H](n2cc(-c3cc(F)c(F)c(F)c3)nn2)[C@H]1O)C1(O)CCOCC1 (stereo partly drawn) [Example 2.41.219.]
2. CN(CC(F)(F)F)C(=O)C(S[C@@H]1O[C@H](CO)[C@H](O)[C@H](n2cc(-c3cc(F)c(F)c(F)c3)nn2)[C@H]1O)C1(O)CCCC1 (stereo partly drawn) [Example 2.38.219.]
Please indicate which has the smaller reported pIC50: 1 , or 2 . Pick one; state its label.
1
(1: 6.96, 2: 7.40)

Source: patent US12410208B2
